Numbers sourced from patent US20250197488A1.

Kindly supply the reported Blocking activity (IC50), STAT3-luc reporter values for the records listed here.
Target: T1, IL-11 (Cat. 12225-HNCE, Sino Biological Inc.) (UniProt P20809 22-199, limits assumed)
T1 sequence (looked up): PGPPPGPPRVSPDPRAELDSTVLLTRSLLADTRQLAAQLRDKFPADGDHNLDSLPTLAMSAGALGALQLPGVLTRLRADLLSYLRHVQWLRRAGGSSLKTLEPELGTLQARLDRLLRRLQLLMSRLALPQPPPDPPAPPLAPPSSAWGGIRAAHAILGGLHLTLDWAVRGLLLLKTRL
Assay: cell-based or functional assay
Give bare numbers, in µg/mL.

[[record]]
binder = "hz18A10-VH + hz18A10-VLm10 (antibody, V domains shown, Constant regions not restated for this antibody) VH: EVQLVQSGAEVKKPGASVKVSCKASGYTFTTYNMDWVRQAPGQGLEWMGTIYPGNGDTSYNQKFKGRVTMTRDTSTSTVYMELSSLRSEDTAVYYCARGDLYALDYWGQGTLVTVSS VL: DIQMTQSPSSLSASVGDRVTITCKASQSVSNDLAWYQQKPGKAPKLLIYSASNRYTGVPSRFSGSGSGTDFTFTISSLQPEDIATYYCQHDYSSPYTFGQGTKLEIK"
unit_label = "µg/mL"
result_value = 12.7


# context switch: different binder, same Blocking activity (IC50), STAT3-luc reporter
## Task # input binder: hz18A10-VH + hz18A10-VLm11 (antibody, V domains shown, Constant regions not restated for this antibody) VH: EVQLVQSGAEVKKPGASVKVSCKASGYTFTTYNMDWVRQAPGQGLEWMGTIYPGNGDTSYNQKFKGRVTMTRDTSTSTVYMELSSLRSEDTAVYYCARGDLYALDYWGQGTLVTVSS VL: DIQMTQSPSSLSASVGDRVTITCKASQSVSNDVAWYQQKPGKAPKLLIYRASNRYTGVPSRFSGSGSGTDFTFTISSLQPEDIATYYCQHDYSSPYTFGQGTKLEIK ; wanted: its Blocking activity (IC50), STAT3-luc reporter
## Result 4.07
